Source: patent US9796720B2

Can you tell me Emax for the items I'm about to list?
System: AP-1
method: Cellular transrepressional assay (AP-1 luciferase reporter in A549 cells, PMA-activated)
Type: cell-based
condition notes: 7 h, read-out: AP-1 Max % inhibition (measured in cellular transrepression assay)
Field: numeric (%). Do not append units.

The value of Emax measured for the molecule CC(=O)c1ccc(-c2ccc3c(n2)Oc2c(F)cccc2[C@@H]3C(C)(C)c2nc3nccnc3[nH]2)cc1 turned out to be 59.7

Entry CC(C)S(=O)(=O)c1ccc(-c2ccc3c(n2)Oc2c(F)cccc2[C@@H]3C(C)(C)c2nc3nccnc3[nH]2)cc1 — recorded Emax = 54.2

Given item CC(C)(C)Oc1ccc(-c2ccc3c(n2)Oc2c(F)cccc2[C@@H]3C(C)(C)c2nc3nccnc3[nH]2)cc1 , the value recorded as its Emax is 76.3

Lookup result for CC(C)(c1nc2nccnc2[nH]1)[C@@H]1c2ccc(-c3ccc(NS(C)(=O)=O)cc3)nc2Oc2c(F)cccc21 ; measured Emax: 58.2

# Emax of CC(C)(c1nc2nccnc2[nH]1)[C@@H]1c2ccc(-c3ccc(S(C)(=O)=O)cc3)nc2Oc2c(F)cccc21 = 55.8

====

system under test: human full-length glucocorticoid receptor (Homo sapiens (Human), UniProt P04150)
Sequence (P04150 whole entry): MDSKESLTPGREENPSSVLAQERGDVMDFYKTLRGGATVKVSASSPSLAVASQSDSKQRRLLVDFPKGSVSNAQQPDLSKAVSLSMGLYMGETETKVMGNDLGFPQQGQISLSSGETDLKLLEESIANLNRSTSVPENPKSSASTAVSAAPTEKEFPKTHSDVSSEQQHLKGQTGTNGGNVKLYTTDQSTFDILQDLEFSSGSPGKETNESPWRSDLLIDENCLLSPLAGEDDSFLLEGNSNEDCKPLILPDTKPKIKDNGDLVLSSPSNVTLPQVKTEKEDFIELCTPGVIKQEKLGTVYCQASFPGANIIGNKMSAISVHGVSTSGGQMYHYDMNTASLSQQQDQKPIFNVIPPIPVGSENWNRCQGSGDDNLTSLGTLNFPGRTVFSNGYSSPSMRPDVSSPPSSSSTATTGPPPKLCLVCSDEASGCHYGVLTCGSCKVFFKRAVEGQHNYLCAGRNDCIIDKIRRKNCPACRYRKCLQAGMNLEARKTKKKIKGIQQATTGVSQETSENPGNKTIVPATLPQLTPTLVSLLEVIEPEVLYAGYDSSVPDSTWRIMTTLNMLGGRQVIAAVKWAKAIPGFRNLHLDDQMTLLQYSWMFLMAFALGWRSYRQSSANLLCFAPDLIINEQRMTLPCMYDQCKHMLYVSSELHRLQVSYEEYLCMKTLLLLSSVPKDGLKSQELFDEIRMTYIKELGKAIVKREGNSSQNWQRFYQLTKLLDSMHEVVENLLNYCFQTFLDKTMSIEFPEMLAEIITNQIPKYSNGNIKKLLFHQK
method: Glucocorticoid Receptor Binding Assay (II), fluorescence polarization competitor assay
condition notes: recombinant human full-length GR cell lysate, Fluormone GS1; read-out: GR (Ki, nM) (measured in GR binding Assay II)
Label true (1) when Ki is strictly below 10 nM; at or above that, label false (0).

Report whether reported Ki is lower than 10 nM (strictly) for Cn1nnnc1-c1ccc(-c2ccc3c(n2)Oc2c(F)cccc2[C@@H]3C(C)(C)c2nc3nccnc3[nH]2)cc1
true (1)

# strict comparison: is reported Ki < 10 nM? input = CC(C)(c1nc2nccnc2[nH]1)[C@@H]1c2ccc(-c3ccccc3)nc2Oc2c(F)cccc21
true (1)

Does the reported Ki of CC(C)(c1nc2nccnc2[nH]1)[C@@H]1c2ccc(-c3ccc(N)cc3)nc2Oc2c(F)cccc21 stay below 10 nM?
true (1)

Hello, I'm reviewing records and need to know if Ki of CC(C)(c1nc2ccccc2[nH]1)[C@@H]1c2ccc(-c3ccc(C(=O)N4CCOCC4)cc3)nc2Oc2c(F)cccc21 is below 10 nM. Could you check?
false (0)

Item CC(C)Oc1ccc(-c2ccc3c(n2)Oc2c(F)cccc2[C@@H]3C(C)(C)c2nc3nccnc3[nH]2)cn1 : Ki beneath 10 nM, strictly?
true (1)

Confirm or reject: Ki of CN(C)C(=O)c1ccc(-c2ccc3c(n2)Oc2c(F)cccc2[C@@H]3C(C)(C)c2nc3nccnc3[nH]2)cc1 lies strictly below 10 nM
true (1)

Field: below-cutoff. Rule: recorded Ki strictly less than 10 nM. Subject: CC(C)(c1nc2nccnc2[nH]1)[C@@H]1c2ccc(-c3ccncc3)nc2Oc2c(F)cccc21
true (1)

Report whether reported Ki is lower than 10 nM (strictly) for CC(C)(c1nc2nccnc2[nH]1)[C@@H]1c2ccc(-c3ccc(N4CCOCC4)cc3)nc2Oc2c(F)cccc21
false (0)

Strictly below 10 nM in Ki? CC(C)(c1nc2nccnc2[nH]1)[C@@H]1c2ccc(-c3ccc(NS(C)(=O)=O)cc3)nc2Oc2c(F)cccc21
true (1)

Given the entry CC(C)(c1nc2cncnc2[nH]1)[C@@H]1c2ccc(-c3ccc(C(=O)N4CCOCC4)cc3)nc2Oc2c(F)cccc21 , would its reported Ki be below 10 nM?
false (0)

I wonder whether CC(C)(c1nc2nccnc2[nH]1)[C@@H]1c2ccc(-c3ccc(C(=O)N4CCOCC4)cc3)nc2Oc2c(F)cccc21 has Ki below 10 nM. Can you tell?
false (0)

Just wondering, is Ki of CN(C)c1ccc(-c2ccc3c(n2)Oc2c(F)cccc2[C@@H]3C(C)(C)c2nc3nccnc3[nH]2)cn1 below 10 nM?
true (1)

Regarding CC(C)(c1nc2nccnc2[nH]1)[C@@H]1c2ccc(-c3ccc(F)nc3)nc2Oc2c(F)cccc21 , kindly confirm whether its Ki is beneath 10 nM.
false (0)

# strict comparison: is reported Ki < 10 nM? input = CC(=O)c1ccc(-c2ccc3c(n2)Oc2c(F)cccc2[C@@H]3C(C)(C)c2nc3nccnc3[nH]2)cc1
true (1)

Please check: Ki for CC(C)(c1nc2cccnc2[nH]1)[C@@H]1c2ccc(-c3ccc(C(=O)N4CCOCC4)cc3)nc2Oc2c(F)cccc21 , strictly under 10 nM or not?
false (0)

I'd appreciate it if you could check whether CC(C)(O)c1ccc(-c2ccc3c(n2)Oc2c(F)cccc2[C@@H]3C(C)(C)c2nc3nccnc3[nH]2)cc1 has Ki smaller than 10 nM.
true (1)

Please determine if COC(=O)c1ccc(-c2ccc3c(n2)Oc2c(F)cccc2[C@@H]3C(C)(C)c2nc3nccnc3[nH]2)cn1 is below 10 nM in terms of Ki.
false (0)

Find out if reported Ki for CC(C)(c1nc2cncnc2[nH]1)[C@@H]1c2ccc(-c3ccc(S(C)(=O)=O)cc3)nc2Oc2c(F)cccc21 is less than 10 nM
false (0)

====

System: AP-1
method: Cellular transrepressional assay (AP-1 luciferase reporter in A549 cells, PMA-activated)
Assay type: cell-based
condition notes: A549 cells, 7xAP-1 luciferase, PMA 10 ng/ml, 7 hours; read-out: AP-1 (EC50, nM) (measured in cellular transrepression assay)
endpoint: EC50 (nM)
Kindly answer with a numeric value in nM, unit omitted.

Readout EC50 for CC(C)(c1nc2cccnc2[nH]1)[C@@H]1c2ccc(-c3ccc(C(=O)N4CCOCC4)cc3)nc2Oc2c(F)cccc21 , test system AP-1, was 864

Tested on AP-1, the item CC(C)(c1nc2nccnc2[nH]1)[C@@H]1c2ccc(-c3ccc(N4CCCC4=O)cc3)nc2Oc2c(F)cccc21 showed EC50 equal to 37.3

Item: CN(C)C(=O)c1ccc(-c2ccc3c(n2)Oc2c(F)cccc2[C@@H]3C(C)(C)c2nc3nccnc3[nH]2)cc1 | System: AP-1 | EC50: 4.94

// returns EC50 for CC(C)(c1nc2cncnc2[nH]1)[C@@H]1c2ccc(-c3ccc(S(C)(=O)=O)cc3)nc2Oc2c(F)cccc21 with AP-1; value = 2500

For the compound CC(C)Oc1ccc(-c2ccc3c(n2)Oc2c(F)cccc2[C@@H]3C(C)(C)c2nc3nccnc3[nH]2)cc1Cl , the measured EC50 on AP-1 was 291

Tested on AP-1: CC(C)(c1nc2nccnc2[nH]1)[C@@H]1c2ccc(-c3ccc(F)nc3)nc2Oc2c(F)cccc21 . Observed EC50: 5000

Record for CCOc1ccc(-c2ccc3c(n2)Oc2c(F)cccc2[C@@H]3C(C)(C)c2nc3nccnc3[nH]2)cc1 under target or system AP-1: EC50 reported as 14.4

The reported EC50 value, AP-1, for CC(C)(c1nc2ccccc2[nH]1)[C@@H]1c2ccc(-c3ccc(C(=O)N4CCOCC4)cc3)nc2Oc2c(F)cccc21 reads 284

Sample CC(C)(c1nc2nccnc2[nH]1)[C@@H]1c2ccc(-c3ccc(C(=O)N4CCOCC4)nc3)nc2Oc2c(F)cccc21 , system: AP-1. Its EC50 is 179

Observed EC50 on AP-1, entry CC(C)(c1nc2nccnc2[nH]1)[C@@H]1c2ccc(-c3ccncc3)nc2Oc2c(F)cccc21 , equals 21.1

Form: item COC(=O)c1ccc(-c2ccc3c(n2)Oc2c(F)cccc2[C@@H]3C(C)(C)c2nc3nccnc3[nH]2)cn1 ; test system AP-1; EC50: 5000

Note to self: EC50 of CC(C)(c1nc2nccnc2[nH]1)[C@@H]1c2ccc(-c3ccc(OC(F)(F)F)cc3)nc2Oc2c(F)cccc21 with AP-1 was 55.1

// assay AP-1, entry CC(C)(c1nc2nccnc2[nH]1)[C@@H]1c2ccc(-c3ccccc3)nc2Oc2c(F)cccc21 , EC50 value = 14.2

Known value: AP-1 EC50 of the compound CC(=O)Nc1ccc(-c2ccc3c(n2)Oc2c(F)cccc2[C@@H]3C(C)(C)c2nc3nccnc3[nH]2)cc1 equals 1950

So the reported EC50 for CC(C)Oc1ccc(-c2ccc3c(n2)Oc2c(F)cccc2[C@@H]3C(C)(C)c2nc3nccnc3[nH]2)cc1 , on AP-1, turned out to be 9.82

Readout EC50 for CC(C)(O)c1ccc(-c2ccc3c(n2)Oc2c(F)cccc2[C@@H]3C(C)(C)c2nc3nccnc3[nH]2)cn1 , test system AP-1, was 28.4

CN(C)c1ccc(-c2ccc3c(n2)Oc2c(F)cccc2[C@@H]3C(C)(C)c2nc3nccnc3[nH]2)cn1 tested on AP-1 gave EC50: 129

Form field, EC50 with AP-1, item CC(C)Oc1ccc(-c2ccc3c(n2)Oc2c(F)cccc2[C@@H]3C(C)(C)c2nc3nccnc3[nH]2)cn1 : 31.7

Measured on AP-1, CC(C)(c1nc2cncnc2[nH]1)[C@@H]1c2ccc(-c3ccc(C(=O)N4CCOCC4)cc3)nc2Oc2c(F)cccc21 has a documented EC50 of 169
